Assay: Half-life in po dosed rat
Assay type: ADME, organism-based
Settings: in vivo
ENDPOINT LABEL: half-life (h)
Report the value in h with no unit label.

INSERT INTO assay_data (structure, reading_unit, readout_value) VALUES
  ('FC(F)(F)c1ccc(C2(Nc3nc(Cl)nc4[nH]ncc34)CC2)cc1', 'h', 6.33);

API: the following record is the query input.
Recorded half-life (molecule `Cc1nc(NC2(c3ccc(C(F)(F)F)cc3)CC2)c2cnn(C)c2n1` ): 1.34

====

Listing of recorded Papp by entry.
Tested on: rat MDR1A
Test: Apparent permeability in pig LLC-PK1 expressing rat MDR1A
Assay type: ADME, cell-based, Sus scrofa

INSERT INTO results (structure, target_desc, readout_value) VALUES
  ('FC(F)(F)c1ccc(C2(Nc3nc(Cl)nc4[nH]ncc34)CC2)cc1', 'rat MDR1A', '1.63 to 26.5 ×10⁻⁶ cm/s');

Next up:
Short answer on rat MDR1A for `Cc1nc(NC2(c3ccc(C(F)(F)F)cc3)CC2)c2cnn(C)c2n1` , Papp: 0.82 to 26.7 ×10⁻⁶ cm/s
